- Test system: HepaRG
- assay-text: LDH release cytotoxicity, % of total lysis control; higher = more cytotoxic
- recorded-conditions: 31.6228 µM; 48 h
quantity-name: LDH release cytotoxicity (%)
# unit: % | format: bare number

The compound identified as CC(O)CCO (stereo not drawn) registered its LDH release cytotoxicity at -1.67

Entry c1cc2ccc3cccc4ccc(c1)c2c34 ; LDH release cytotoxicity = -0.764

Now take the following compound into account.
According to the records, this compound OCC(O)CO displays LDH release cytotoxicity of -0.926

====

Property: LDH release cytotoxicity; scope: individual molecules
- Test system: HepaRG
- assay-text: LDH release cytotoxicity, % of total lysis control; higher = more cytotoxic
- recorded-conditions: 10 µM; 48 h
API: value field is a number in %; no unit string.

Examples with their reported LDH release cytotoxicity follow.
Entry CC(C)NC(=O)N1CC(=O)N(c2cc(Cl)cc(Cl)c2)C1=O — recorded LDH release cytotoxicity = -0.662

Input NS(=O)(=O)C(F)(F)C(F)(F)C(F)(F)C(F)(F)C(F)(F)C(F)(F)C(F)(F)C(F)(F)F [Perfluorooctanesulfonamide] . Output LDH release cytotoxicity: -4.2

Value of measured LDH release cytotoxicity for the entry COc1ccc(C(=O)Nc2nc3ccccc3c(NCc3ccccc3)c2C#N)cc1 : 2.97

Others:
So, Clc1cccc(Cl)c1 ? Its LDH release cytotoxicity was 0.199

Given item O=P(OCCCl)(OCCCl)OCCCl [Tris(2-chloroethyl) phosphate] , the value recorded as its LDH release cytotoxicity is -0.4

The molecule listed as CNC(=S)S [Metam-sodium hydrate] has a reported LDH release cytotoxicity of -0.405

The molecule listed as Nc1nc(N)c2nc(CNc3ccc(C(=O)NC(CCC(=O)O)C(=O)O)cc3)cnc2n1 (centres undefined) shows LDH release cytotoxicity equal to -9.44

According to the records, this molecule C#CC(O)C(CC)CCCC (centres undefined) displays LDH release cytotoxicity of -1.32

According to the records, this molecule O=C(O)C(F)(F)C(F)(F)C(F)(F)C(F)(F)C(F)(F)C(F)(F)C(F)(F)F [Ammonium perfluorooctanoate] displays LDH release cytotoxicity of -1.1

====

- System: HepaRG
- assay-text: LDH release cytotoxicity, % of total lysis control; higher = more cytotoxic
- recorded-conditions: 1 µM; 48 h
Counter-ions that a name gives are not always drawn.
quantity-name: LDH release cytotoxicity (%)
# value in %; strip the unit string

Field: example entries. Status: answers known.
Input COC(=O)c1ccc(I)cc1S(=O)(=O)NC(=O)Nc1nc(C)nc(OC)n1 [Iodosulfuron-methyl-sodium] . Output LDH release cytotoxicity: -0.477

// field: LDH release cytotoxicity; key: Cc1cc(O)ccc1Cl ; value = -0.443

Memo: Oc1ccc(O)cc1 [Hydroquinone] , reported LDH release cytotoxicity: -0.745

Form: compound = CCc1cc(SCc2sc(-c3ccc(C(F)(F)F)cc3)nc2CN2CCN(c3ccc(OC)cc3)CC2)ccc1OCC(=O)O ; LDH release cytotoxicity = -1.49

GET /value?item= CCOC(=O)C(O)(c1ccc(Cl)cc1)c1ccc(Cl)cc1 [Chlorobenzilate] &field=LDH release cytotoxicity returns -2.17

***
The compound listed as CCCCSP(=O)(SCCCC)SCCCC shows LDH release cytotoxicity equal to -1.25

// LDH release cytotoxicity value for OCC(CO)(CBr)CBr [Pentaerythritol dibromide] : -2.19

Lab book: LDH release cytotoxicity of CCC(=C(CC)c1ccc(O)cc1)c1ccc(O)cc1 noted as -2.18

Item: CC=Cc1ccc(O)c(OC)c1 | LDH release cytotoxicity: -3.05

Value of measured LDH release cytotoxicity for the entry CCCCCCCCCC(=O)O : -1.7

Note to self: LDH release cytotoxicity recorded for CCCCCCCCCCCCOS(=O)(=O)O [Sodium dodecyl sulfate] was -0.62
